Recorded melting point, one value per entry.

Solved entries:
• CC(=O)C1=C(C)OC([N+](=O)[O-])C1c1cccc(Cl)c1 (centres unmarked) = 84 to 85 °C
• COc1cccc(-c2coc3c2C(=O)CCC3)c1 = 79 to 80 °C
• CC1CC(=O)c2c(-c3cccc(Cl)c3)coc2C1 (centres unmarked) = 121 to 122 °C
• COc1ccc(Cl)cc1C1C2=C(CCCC2=O)OC1[N+](=O)[O-] (centres unmarked) = 171 to 172 °C
• O=C1CCCc2occ(-c3cccc(Cl)c3)c21 [Example 129-G03] = 87 to 88 °C

# melting point (compound: ON=C1CCCc2occ(-c3cccc(Cl)c3)c21 ) is 157 to 158 °C

# melting point (compound: O=C1CCCc2occ(-c3ccc(Cl)c(Cl)c3)c21 ) is 122 to 123 °C

# melting point (compound: C=Cc1cccc(-c2coc3c2C(=O)CCC3)c1 [GAC50] ) is 88 to 89 °C

# melting point (compound: O=C1CCCc2occ(-c3ccccc3Cl)c21 ) is 147 to 148 °C

# melting point (compound: O=C1CCCc2occ(-c3cc(Cl)cc(Cl)c3)c21 ) is 105 to 106 °C

# melting point (compound: O=C1CCCc2occ(-c3cccc(I)c3)c21 [GAC25] ) is 135 to 136 °C

# melting point (compound: O=C1CCCc2occ(-c3cccc(F)c3)c21 ) is 65 to 66 °C

# melting point (compound: CC1(C)CC(=O)c2c(-c3cccc(Cl)c3)coc2C1 ) is 104 to 105 °C

# melting point (compound: COc1cc(-c2coc3c2C(=O)CCC3)cc(OC)c1OC ) is 140 to 141 °C

Value source: patent US9315482B2
